Give cell count for every item shown.
assay: viability loss with induced miR-34 in A549 – imaging, A549 dox-inducible miR-34, nuclei and caspase counts, primary screen (AID 1347080); details: A549 miR-34 inducible, Hoechst nuclei count, 48 h; measured here: total cells with miR-34 induction; stronger effect = lower value
Returns: the value as a bare number; no unit string appended.

For "C=CCNC(=O)c1cc([N+](=O)[O-])cc2c(=O)[nH]c(Nc3ccc(Cl)c(Cl)c3)nc12" the compound record lists cell count as 8840

Note to self: cell count recorded for CC#CCC(C)[C@@H](O)/C=C/[C@@H]1[C@H]2C/C(=C\CCCC(=O)O)C[C@H]2C[C@H]1O (some centres undefined) was 4970

For "CCCCCCNC(=O)Nc1ccc(S(=O)(=O)Nc2ccc(CCNC[C@H](O)COc3ccc(O)cc3)cc2)cc1" the compound record lists cell count as 8320

Kindly note the recorded cell count for "CCCCCCCCCCCC(=O)CC(=O)N[C@H]1CCOC1=O" , which is 6190

The value of cell count measured for the compound "C/C(O)=C1/C(=O)[C@@H]2[C@H]3c4c[nH]c5cccc(c45)C[C@H]3C(C)(C)N2C1=O" turned out to be 6050

Lookup result for "COc1ccccc1N1CCN(CCn2c(=O)[nH]c3c([nH]c4ccccc43)c2=O)CC1" ; measured cell count: 8910

Measured cell count of "COC(=O)N1CCN(Cc2cccc(NC(=O)Nc3ccc(C)nc3)c2F)CC1" : 9170

The reported cell count of the compound "CCCCC/C=C/C=C1/C(=O)C[C@H](O)[C@@H]1C/C=C\CCCC(=O)O" was 6090

Reported cell count ( "COc1ccc(/C=C/C(=O)CC(=O)/C=C/c2cccc(O)c2OC)cc1O" ) = 3510

----------
assay: drug combination growth inhibition, ovarian cancer – cell-based, oncology-focused library, rucaparib conditional, profiling panel (AID 1508598); details: patient-derived ovarian cancer cells, CellTiter-Glo viability, 144 h; at 0.00488 µM; OCI-P5x cells; without rucaparib; stronger effect = lower value
Test Readout: viability (%)
Number only, in %; omit the unit.

Entry under test: "CN1CCN(CCOc2cc(OC3CCOCC3)c3c(Nc4c(Cl)ccc5c4OCO5)ncnc3c2)CC1" . Its viability was 91.3

// sample "S=C(NCc1ccc2c(c1)OCO2)N1CCN(c2ncnc3c2oc2ccccc23)CC1" , its viability was 95.2

"Cc1c(NC(=O)OC[C@@H]2COCCN2)cn2ncnc(Nc3ccc4c(cnn4Cc4cccc(F)c4)c3)c12" yielded viability of 96.9

Measured viability, "Cc1csc(-c2nnc(Nc3ccc(Oc4ncccc4-c4ccnc(N)n4)cc3)c3ccccc23)c1" : 93.3

Looking up "CO[C@@H](C(=O)N1Cc2[nH]nc(NC(=O)c3ccc(N4CCN(C)CC4)cc3)c2C1)c1ccccc1" , I see its viability listed as 88.2

The reported viability of the molecule "C=CC(=O)Nc1cccc(Oc2nc(Nc3ccc(N4CCN(C)CC4)cc3OC)ncc2Cl)c1" was 118

The recorded viability for entry "CCC(CC)CC1(C(=O)Nc2ccccc2SC(=O)C(C)C)CCCCC1" equals 99.6

The molecule listed as "CC(C)(C)c1cnc(CSc2cnc(NC(=O)C3CCNCC3)s2)o1" shows viability equal to 104

Lab book: viability of "COc1cc(Nc2ncc3c(n2)-c2ccc(Cl)cc2C(c2c(F)cccc2OC)=NC3)ccc1C(=O)O" noted as 106

Recorded result, "O=C(O)c1ccc2c(c1)nc(Nc1cccc(Cl)c1)c1ccncc12" , viability: 104

Consider "Cc1ccc(C(=O)N(CCCN)[C@@H](c2nc3cc(Cl)ccc3c(=O)n2Cc2ccccc2)C(C)C)cc1" . Its measured viability is 66.4

What the record says about "COc1ccc(S(=O)(=O)Nc2cccnc2Nc2ccc(O)cc2)cc1" : viability is 121

Sample "COCCn1c2c([n+](Cc3cnccn3)c1C)C(=O)c1ccccc1C2=O" ; viability observed: 49.6

Lookup result for CC[C@@H]1C(=O)N(C)c2cnc(Nc3ccc(C(=O)NC4CCC(N5CCN(CC6CC6)CC5)CC4)cc3OC)nc2N1C(C)C (stereo partly drawn) ; measured viability: 26.8

Lookup result for "CC1(C)CCC(c2ccc(Cl)cc2)=C(CN2CCN(c3ccc(C(=O)NS(=O)(=O)c4ccc(N[C@H](CCN5CCOCC5)CSc5ccccc5)c(S(=O)(=O)C(F)(F)F)c4)cc3)CC2)C1" ; measured viability: 105

// field: viability; key: "COc1cc2c(Oc3ccc4[nH]c(C)cc4c3F)ncnc2cc1OCCCN1CCCC1" ; value = 91.6

The reported value for "Nc1ccn([C@@H]2O[C@H](CO)[C@@H](O)C2(F)F)c(=O)n1" in terms of viability is 22.9

Entry "COc1ccc(-c2ccc3c(N4CCOCC4)nc(N4C[C@@H](C)O[C@@H](C)C4)nc3n2)cc1CO" ; viability = 107

----------
assay: drug combination growth inhibition, ovarian cancer – cell-based, oncology-focused library, rucaparib conditional, profiling panel (AID 1508598); settings: patient-derived ovarian cancer cells, CellTiter-Glo viability, 144 h; at 0.313 µM; OCI-P5x cells; without rucaparib
Calls of active or inactive are those of the source.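 Rule for the calls: active = normalized viability below 100% at a tested concentration; inactive = the rest.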
Mark one answer only. Choices: active, inactive

Call for entry "O=C(Nc1cccnc1)N1CCC(Cc2cccc(Oc3ccc(C(F)(F)F)cn3)c2)CC1" : active

I'd appreciate the recorded outcome for "O=C(Cc1ccc(-c2ccc(OCCN3CCOCC3)cc2)cn1)NCc1ccccc1" from this test. active

Hi, do you know how CC1(O)CC(c2nc(-c3ccc4ccc(-c5ccccc5)nc4c3)c3c(N)nccn23)C1 (centres undefined) came out in this test? active

Hi, do you know how "CC(C)(C)Cn1c(N)nc2ccc(-c3[nH]c(C(C)(C)C)nc3-c3ccc(F)cc3)nc21" came out in this test? inactive

Please indicate how the test categorized "CC(=O)Nc1nc(C)c(-c2ccc(Cl)c(S(=O)(=O)NCCO)c2)s1" . inactive

Please share the test call associated with "Cc1ccc(-c2csc(NC(=O)c3ccccc3)n2)c(C)c1" . active

// return assay outcome for "COc1ncc(-c2ccc3nccc(-c4ccnnc4)c3c2)cc1NS(=O)(=O)c1ccc(F)cc1F" active

Identify the outcome logged in this assay for the molecule shown: "CC(C)(C)c1cc(NC(=O)Nc2ccc(-c3cn4c(n3)sc3cc(OCCN5CCOCC5)ccc34)cc2)no1" active

Test call, this molecule: Nc1cccc2c1C(=O)N(C1CCC(=O)NC1=O)C2=O (centres undefined) inactive

Write down the call the test reported for this molecule. Item: "COc1cc(Nc2ncc(F)c(Nc3ccc4c(n3)NC(=O)C(C)(C)O4)n2)cc(OC)c1OC" active

Give the logged outcome of this assay for the following molecule: "C=CCn1c(=O)c2cnc(Nc3ccc(N4CCN(C)CC4)cc3)nc2n1-c1cccc(C(C)(C)O)n1" active

Write down the call the test reported for this molecule. Item: "COc1cc2nccc(Oc3ccc(NC(=O)NC4CC4)c(Cl)c3)c2cc1C(N)=O" inactive

Which outcome was entered for the molecule "Cc1cnc(-c2ccccc2C(C)C)nc1NCc1ccc(-n2ccnn2)cc1" in this test? inactive

Short answer needed: outcome of this test for "CN1CCN(CCOc2cc(OC3CCOCC3)c3c(Nc4c(Cl)ccc5c4OCO5)ncnc3c2)CC1" ? active

State the result this test recorded for "C[C@@H](Oc1cc(-c2cnn(C3CCNCC3)c2)cnc1N)c1c(Cl)ccc(F)c1Cl" . active

// param item: "CCN1CCN(Cc2ccc(-c3cc4c(N[C@H](C)c5ccccc5)ncnc4[nH]3)cc2)CC1" ; yields the recorded call inactive

Look up the recorded call for "CNC(=O)c1cc(Oc2ccc(NC(=O)Nc3cc(C(C)(C)C)nn3-c3ccc4ncccc4c3)c(F)c2)ccn1" in this test. active

Just curious, what result did "CC(=O)Nc1cccc(-n2c(=O)n(C3CC3)c(=O)c3c(Nc4ccc(I)cc4F)n(C)c(=O)c(C)c32)c1" get here? active

Which outcome was entered for the molecule "CCN(CCO)CCCOc1ccc2c(Nc3cc(CC(=O)Nc4cccc(F)c4)[nH]n3)ncnc2c1" in this test? active

----------
experiment: JHH-DIPG-1 glioma cell viability, MIPE5.0 library, CellTiter-Glo luminescence, qHTS (AID 1347067); settings: JHH-DIPG-1 glioma viability, CellTiter-Glo ATP luminescence;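 note: cells exposed to compound for 48 hours before readout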
Inconclusive results are not listed. The source made the active and inactive calls. Cut-off not given; nearly all actives show AC50 up to about 26 µM.
Could you please pick one outcome from this set? y (active), n (inactive)

Tell me the recorded outcome of this test for "Nc1nc2[nH]cc(CCc3ccc(C(=O)N[C@@H](CCC(=O)O)C(=O)O)cc3)c2c(=O)[nH]1" . n

Which outcome did this test record for the compound "Cc1[nH]c2ccccc2c1CCNCc1ccc(/C=C/C(=O)NO)cc1" ? y

What was the test verdict on "COc1cc2c(cc1Cc1cccc(Cl)c1F)c(=O)c(C(=O)O)cn2[C@H](CO)C(C)C" ? y

Tell me the recorded outcome of this test for "CNC(=O)CCc1cc(-c2ccc(-c3ccc(C(F)(F)F)cc3)cc2)n(-c2ccc(N3CCNCC3)cc2)n1" . y

What is the recorded call for this compound in the test? "CC(C)=CCC[C@](C)(O[C@@H]1O[C@H](CO[C@@H]2O[C@H](CO)[C@@H](O)[C@H](O)[C@H]2O)[C@@H](O)[C@H](O)[C@H]1O)[C@H]1CC[C@]2(C)[C@@H]1[C@H](O)C[C@@H]1[C@@]3(C)CC[C@H](O[C@@H]4O[C@H](CO)[C@@H](O)[C@H](O)[C@H]4O[C@@H]4O[C@H](CO)[C@@H](O)[C@H](O)[C@H]4O)C(C)(C)[C@@H]3CC[C@]12C" n

Tell me the recorded outcome of this test for "CC(C)(O)CNc1ncc(-c2ccnc(Nc3ccncc3)n2)c(CC2CC2)n1" . y

Hello, I am checking results. What call was entered for "O=C1CC[C@H](N2Cc3c(OCc4ccc(CN5CCOCC5)cc4)cccc3C2=O)C(=O)N1" ? n
